In this section, each of the compounds is paired with its reported MIC.
Tested on: Mycolicibacterium smegmatis
assay: Antibacterial activity against Mycolicibacterium smegmatis assessed as bacterial growth inhibition by paper disc diffusion assay
Type: functional
measurementType: MIC

>>> obsvalue("C/C=C1/NC(=O)C(NC(=O)CNC(=O)CCCCCCCCCCCCNC(=N)N)CC2(CSCC(C(=O)O)NC(=O)CNC(=O)CNC2=O)NC(=O)[C@H]([C@@H](C)CC)NC1=O (stereo not given in full)")
"25.6 µM"
>>> obsvalue("C/C=C1/NC(=O)C(NC(=O)CNC(=O)CCCCCCCCCCCCNC(=N)N)CC2(C[S+]([O-])CC(C(=O)O)NC(=O)CNC(=O)CNC2=O)NC(=O)[C@H](C(C)C)NC1=O (stereo not given in full)")
"25.6 µM"
>>> obsvalue("C/C=C1/NC(=O)C(NC(=O)CNC(=O)CCCCCCCCCCCCNC(=N)N)CC2(C[S+]([O-])CC(C(=O)O)NC(=O)CNC(=O)CNC2=O)NC(=O)[C@H]([C@@H](C)CC)NC1=O (stereo not given in full)")
"6.4 µM"
>>> obsvalue("C/C=C1/NC(=O)C(NC(=O)CNC(=O)CCCCCCCCCCCCNC(=N)N)CC2(CSCC(C(=O)O)NC(=O)CNC(=O)CNC2=O)NC(=O)[C@H](C(C)C)NC1=O (stereo not given in full)")
"51.2 µM"
>>> obsvalue("NC[C@H]1O[C@H](O[C@H]2[C@H](O)[C@@H](O[C@H]3O[C@H](CO)[C@@H](O)[C@H](N)[C@H]3O)[C@H](N)C[C@@H]2N)[C@H](O)[C@@H](O)[C@@H]1O")
"1.6 µM"
